Data credit: patent US20250026849A1

measurement target: T1, CD123 (Homo sapiens (Human), UniProt P26951 19-305, limits assumed)
T1 construct: The CD123 construct used in the ELISA is not described; also called CD123-Signal
T1 sequence: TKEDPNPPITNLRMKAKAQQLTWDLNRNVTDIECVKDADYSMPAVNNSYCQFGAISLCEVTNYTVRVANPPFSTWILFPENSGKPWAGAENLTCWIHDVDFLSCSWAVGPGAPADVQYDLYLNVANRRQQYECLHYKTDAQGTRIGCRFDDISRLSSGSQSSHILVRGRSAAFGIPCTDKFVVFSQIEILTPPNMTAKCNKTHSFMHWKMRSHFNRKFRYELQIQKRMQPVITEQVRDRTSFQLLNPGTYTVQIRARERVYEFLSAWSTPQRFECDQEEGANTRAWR
assay protocol: ELISA
Set-up: unit not given here
Mark condition met for reported ELISA_avg of 4 or greater; mark condition not met for anything smaller.

Data request: Given D domain of SEQ ID NO: 602 (designed binder) MGSWNEFVERLSAIDHRLWALGGSEAELADFEQQIAEFEIHLQEYKGKGNPEVEALDFEADAIFDELLAYRHN , state whether its ELISA_avg is at least 4.
Data returned: condition not met

Data request: Given D domain of SEQ ID NO: 617 (designed binder) MGSWHEFEERLMAIEDRLWALGGSEAELAEFEQWIALFEYDLQEYKGKGNPEVEALGMEAFAINNELSAYRHN , state whether its ELISA_avg is at least 4.
Data returned: condition met

Data request: Given D domain of SEQ ID NO: 593 (designed binder) MGSWVEFIMRLDAIYERLDALGGSEAELAEFEWHIADFEDHLQWYKGKGNPEVEALFEEADAIWEELWAYRHN , state whether its ELISA_avg is at least 4.
Data returned: condition met

Data request: Given D domain of SEQ ID NO: 514 (designed binder) MGSWNEFKDDLAMIKMTLEALGGSEAELAWFEHDIAEFEDDLQWYKGKGNPEVEALRKEAAAIRDELQAYRHN , state whether its ELISA_avg is at least 4.
Data returned: condition not met

Data request: Given D domain of SEQ ID NO: 616 (designed binder) MGSWLEFEYRLDAIYDRLFALGGSEAELAAFEQDIADFEKYLQYYKGKGNPEVEALWEEADAIMWELFAYRHN , state whether its ELISA_avg is at least 4.
Data returned: condition not met

Data request: Given D domain of SEQ ID NO: 418 (designed binder) MGSWEEFWERLDAIDTRLWALGGSEAELAAFEKEIAAFESELQAYKGKGNPEVEVLRNDAADIREPLQAYRHN , state whether its ELISA_avg is at least 4.
Data returned: condition met

Data request: Given D domain of SEQ ID NO: 517 (designed binder) MGSWSMFKDDLAEIKASLEALGGSEAELAWFEDDIAWFEDDLQHYKGKGNPEVEALRKEAAAIRDELQAYRHN , state whether its ELISA_avg is at least 4.
Data returned: condition met

Data request: Given D domain of SEQ ID NO: 643 (designed binder) MGSWDEFEFRLEAIDSRLWALGGSEAELAVFEYEIAQFEFMLQEYKGKGNPEVEALGMEAWAIENELFAYRHN , state whether its ELISA_avg is at least 4.
Data returned: condition not met
